Ref: patent US9000010B2

test.readout: melting point

# example entries with known answers
// query Could you tell me which melting point is on file for O=C(OCc1cscn1)N1CCC(COc2ccc3c(Cl)cccc3c2)C1 (racemic) ?
// result 89 to 91 °C

// query melting point lookup needed for O=C(OCc1nccs1)N1CCC(COc2ccc3c(Cl)cccc3c2)C1 (racemic) , thanks.
// result 100 to 102 °C

// query Need melting point of O=C(OCc1nccs1)N1CC[C@H](COc2ccc3ccccc3c2)C1 (single isomer, unassigned) , thanks.
// result 112 to 114 °C

Items follow; give melting point for each.
1. O=C(OCc1cscn1)N1CCC(COc2cnc3ccccc3c2)C1 (racemic)
2. O=C(OCc1nccs1)N1CC[C@@H](COc2ccc3ccccc3c2)C1 (single isomer, unassigned)
3. O=C(OCc1cscn1)N1CCC(COc2ccc3ccncc3c2)C1 (racemic)
4. COc1ccc2cc(OCC3CCN(C(=O)OCc4cc(C(N)=O)no4)C3)ccc2c1 (racemic)
5. O=C(OCc1cscn1)N1CCC(COc2ccc(-c3ccc(F)cc3)cc2)C1 (racemic)

// result
["83 to 85 °C", "100 to 112 °C", "121 to 123 °C", "193 to 195 °C", "115 to 117 °C"]
